read-out: Interleukin-6 (IL6), IL6 (gene 3569); test: BSK_CASM3C_IL6: BioMAP Diversity Plus: CASM3C Assay for Interleukin-6 (IL6) Biomarker Activity for (AID 2283040); settings: primary human coronary artery smooth muscle cells; actives raise or lower the signal
Calls of active or inactive are those of the source. Rule for the calls: active = hit-call score of the fitted dose curve at least 0.9, where 1 is the maximum; inactive = score below 0.9.
Could you please pick one outcome from this set? active, inactive

What call does the record list for N#Cc1c(Cl)cccc1Cl ? inactive

What call does the record list for COC(=O)N(C(=O)N1CO[C@@]2(C(=O)OC)Cc3cc(Cl)ccc3C2=N1)c1ccc(OC(F)(F)F)cc1 ? inactive

What call does the record list for O=P(O)(O)CCCl ? inactive

What call does the record list for COC(=O)NS(=O)(=O)c1ccc(N)cc1 ? inactive

What call does the record list for CC(C)Oc1cccc(NC(=O)c2ccccc2C(F)(F)F)c1 ? inactive

What call does the record list for CS(=O)(=O)c1cc(C(F)(F)F)ccc1C(=O)c1cnoc1C1CC1 ? inactive

What call does the record list for COC(=O)c1c(C(F)F)nc(C(F)(F)F)c(C2=NCCS2)c1CC(C)C ? inactive

What call does the record list for Nc1cnn(-c2ccccc2)c(=O)c1Cl ? inactive

What call does the record list for CCCCOCN(C(=O)CCl)c1c(CC)cccc1CC ? active

What call does the record list for CCN(CC)C(=O)C(C)Oc1cccc2ccccc12 (configuration not stated) ? inactive

What call does the record list for O=C(Nc1ccccc1-c1ccc(Cl)cc1)c1cccnc1Cl ? inactive

What call does the record list for Cn1c(-c2ccccc2)cc(-c2ccccc2)[n+]1C ? inactive

====

read-out: sulfotransferase (SULT2A), SULT2A1 (gene 6822); assay: CLD_SULT2A_24hr: CellzDirect (CLD) Gene Expression Assay for sulfotransferase (SULT2A) at 24 hours (AID 2283694)
Inconclusive results are not listed. The source made the active and inactive calls. Rule for the calls: active = hit-call score of the fitted dose curve at least 0.9, where 1 is the maximum; inconclusive = response in the unintended direction; inactive = score below 0.9.
Could you please pick one outcome from this set? class 1 for active, class 0 for inactive

What call does the record list for COCc1cnc(C2=NC(C)(C(C)C)C(=O)N2)c(C(=O)O)c1 (stereo not given) ? class 0

What call does the record list for CCCC(=NOCC)C1=C(O)CC(CC(C)SCC)CC1=O (stereo not given) ? class 0

What call does the record list for COc1ccc(-c2ccccc2)cc1NNC(=O)OC(C)C ? class 1

What call does the record list for CCOc1cc(C(C)(C)C)ccc1C1COC(c2c(F)cccc2F)=N1 (stereo not given) ? class 0

What call does the record list for COCC(=O)N(c1c(C)cccc1C)C(C)C(=O)OC (stereo not given) ? class 0

What call does the record list for COC(=O)N(C(=O)N1CO[C@@]2(C(=O)OC)Cc3cc(Cl)ccc3C2=N1)c1ccc(OC(F)(F)F)cc1 ? class 0

What call does the record list for CCOP(=O)(OCC)Oc1nc(Cl)c(Cl)cc1Cl ? class 0

What call does the record list for C=C(C)CN(CC)c1c([N+](=O)[O-])cc(C(F)(F)F)cc1[N+](=O)[O-] ? class 0

What call does the record list for CCN(CC)c1nc(C)cc(OP(=S)(OC)OC)n1 ? class 0

What call does the record list for CC(C)C1(C)N=C(c2ncccc2C(=O)O)NC1=O (stereo not given) ? class 0

What call does the record list for COC(=O)c1c(C(F)F)nc(C(F)(F)F)c(C2=NCCS2)c1CC(C)C ? class 1

What call does the record list for CCOP(=S)(OCC)Oc1nc(Cl)n(C(C)C)n1 ? class 0

What call does the record list for COCC(C)N(C(=O)CCl)c1c(C)csc1C (stereo not given) ? class 0

What call does the record list for CC(C)(C)C(=O)C(Oc1ccc(Cl)cc1)n1cncn1 (stereo not given) ? class 0

What call does the record list for O=C(O)c1c(Cl)ccc2cc(Cl)cnc12 ? class 0

What call does the record list for CSC(=O)c1c(C(F)F)nc(C(F)(F)F)c(C(=O)SC)c1CC(C)C ? class 1

What call does the record list for COc1cc(Cl)c(OC)cc1Cl ? class 0

What call does the record list for COC(=O)NS(=O)(=O)c1ccc(N)cc1 ? class 0

What call does the record list for CO/N=C(/C1=NOCCO1)c1ccccc1Oc1ncnc(Oc2ccccc2Cl)c1F ? class 0

What call does the record list for Cn1c(-c2ccccc2)cc(-c2ccccc2)[n+]1C ? class 1

What call does the record list for CC(C)NC(=O)N1CC(=O)N(c2cc(Cl)cc(Cl)c2)C1=O ? class 0

What call does the record list for OC(c1ccc(Cl)cc1)(c1ccc(Cl)cc1)C(Cl)(Cl)Cl ? class 1

What call does the record list for Cc1cc(C)nc(Nc2ccccc2)n1 ? class 0

What call does the record list for Nc1c(Cl)c(Cl)nc(C(=O)O)c1Cl ? class 0

What call does the record list for CCCN(CC)CC1COC2(CCC(C(C)(C)C)CC2)O1 (stereo not given) ? class 1

====

assay: APR_HepG2_NuclearSize_72hr: Apredica 72-hour HepG2 Assay for Nuclear Size (AID 2282925); conditions: high-content imaging, actives raise or lower the signal
Calls of active or inactive are those of the source. How the source made its calls: active means hit-call score of the fitted dose curve at least 0.9, where 1 is the maximum; inactive means score below 0.9.
Measured metric: outcome

{"Compound": "Cc1ccc(N=CN(C)C=Nc2ccc(C)cc2C)c(C)c1", "outcome": "inactive"}
{"Compound": "COc1cc(OC)nc(NC(=O)NS(=O)(=O)c2ncccc2OCC(F)(F)F)n1", "outcome": "inactive"}
{"Compound": "CC(C)N1C(=O)c2ccccc2NS1(=O)=O", "outcome": "inactive"}
{"Compound": "CC(C)NC(=O)N1CC(=O)N(c2cc(Cl)cc(Cl)c2)C1=O", "outcome": "inactive"}
{"Compound": "CN=C=S", "outcome": "inactive"}
{"Compound": "CO/N=C(/C1=NOCCO1)c1ccccc1Oc1ncnc(Oc2ccccc2Cl)c1F", "outcome": "inactive"}

Fill in the blank: the reported outcome of C=C(C)CN(CC)c1c([N+](=O)[O-])cc(C(F)(F)F)cc1[N+](=O)[O-] is ____. inactive

Fill in the blank: the reported outcome of COc1ccc(-c2ccccc2)cc1NNC(=O)OC(C)C is ____. inactive

Fill in the blank: the reported outcome of Clc1nc(Cl)nc(Nc2ccccc2Cl)n1 is ____. inactive

Fill in the blank: the reported outcome of O=P(O)(O)CCCl is ____. inactive

Fill in the blank: the reported outcome of COCC(=O)N(c1c(C)cccc1C)C(C)C(=O)OC (stereo not given) is ____. inactive

Fill in the blank: the reported outcome of CC(C)(C)C(=O)C(Oc1ccc(Cl)cc1)n1cncn1 (stereo not given) is ____. inactive

Fill in the blank: the reported outcome of CC1(C)C(C(=O)OC(C#N)c2cccc(Oc3ccccc3)c2)C1(C)C (stereo not given) is ____. inactive

Fill in the blank: the reported outcome of CCNP(=S)(OC)O/C(C)=C/C(=O)OC(C)C (stereo not given) is ____. inactive

Fill in the blank: the reported outcome of CCCC(=NOCC)C1=C(O)CC(CC(C)SCC)CC1=O (stereo not given) is ____. inactive

Fill in the blank: the reported outcome of CS(=O)(=O)c1ccc(C(=O)C2C(=O)CCCC2=O)c([N+](=O)[O-])c1 is ____. inactive

Fill in the blank: the reported outcome of COC(=O)N(C(=O)N1CO[C@@]2(C(=O)OC)Cc3cc(Cl)ccc3C2=N1)c1ccc(OC(F)(F)F)cc1 is ____. inactive

====

read-out: Tumor necrosis factor receptor 1 (TNFRSF1A), TNFRSF1A (gene 7132); experiment: LTEA_HepaRG_TNFRSF1A: Life Technologies and Expression Analysis (LTEA) Assay for Tumor necrosis factor receptor 1 (TNFRSF1A) using HepaRG (AID 2283535); settings: mRNA level, 48 h; actives raise or lower the signal
Active and inactive are the calls of the source. Rule for the calls: active = hit-call score of the fitted dose curve at least 0.9, where 1 is the maximum; inactive = score below 0.9.
Could you please pick one outcome from this set? Yes for active, No for inactive

What call does the record list for CCOc1nc(C(Cl)(Cl)Cl)ns1 ? No

What call does the record list for CC(C)Nc1nc(Cl)nc(NC(C)C)n1 ? No

What call does the record list for COc1cc(Cl)c(OC)cc1Cl ? No

What call does the record list for COP(=O)(OC)O/C(C)=C/C(=O)N(C)C ? No

What call does the record list for N#CN=C1SCCN1Cc1ccc(Cl)nc1 ? No

What call does the record list for Cn1c(-c2ccccc2)cc(-c2ccccc2)[n+]1C ? Yes

What call does the record list for Nc1cnn(-c2ccccc2)c(=O)c1Cl ? No

What call does the record list for CNC(=O)Oc1cccc2ccccc12 ? No

What call does the record list for CC(C)Oc1cccc(NC(=O)c2ccccc2C(F)(F)F)c1 ? No

What call does the record list for COc1cc(OC)nc(NC(=O)NS(=O)(=O)c2ncccc2OCC(F)(F)F)n1 ? No

What call does the record list for Cc1c(COC(=O)[C@@H]2[C@H](/C=C(\Cl)C(F)(F)F)C2(C)C)cccc1-c1ccccc1 ? No

What call does the record list for CN=C=S ? No

What call does the record list for CC(C)N1C(=O)N(c2ccccc2)CSC1=NC(C)(C)C ? No

====

experiment: ACEA_ER_AUC_viability: ACEA Biosciences xCELLigence Real-Time Cell Analysis on Estrogen Receptor Agonism for Viability (AID 2283782);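 note: continuous compound exposure with impedance area under curve over 80 h; hit means loss of impedance signal meaning reduced cell growth or viability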
Records with an inconclusive call do not appear. Activity calls are given as the source filed them. How the source made its calls: active means hit-call score of the fitted dose curve at least 0.9, where 1 is the maximum; inconclusive means response in the unintended direction; inactive means score below 0.9.
Could you please pick one outcome from this set? yes for active, no for inactive

What call does the record list for Cc1ccc(N=CN(C)C=Nc2ccc(C)cc2C)c(C)c1 ? yes

What call does the record list for O=C(O)c1c(Cl)ccc2cc(Cl)cnc12 ? no

What call does the record list for COC(=O)NS(=O)(=O)c1ccc(N)cc1 ? no

What call does the record list for Nc1c(Cl)c(Cl)nc(C(=O)O)c1Cl ? no

What call does the record list for CC(C)Oc1cccc(NC(=O)c2ccccc2C(F)(F)F)c1 ? no

What call does the record list for O=P(O)(O)CCCl ? no

What call does the record list for CC(C)=CC1C(C(=O)OCc2coc(Cc3ccccc3)c2)C1(C)C (stereo not drawn) ? yes

What call does the record list for CNC(=O)Oc1cccc2ccccc12 ? no

What call does the record list for COC(=O)N(C(=O)N1CO[C@@]2(C(=O)OC)Cc3cc(Cl)ccc3C2=N1)c1ccc(OC(F)(F)F)cc1 ? yes

What call does the record list for CC(C)N1C(=O)N(c2ccccc2)CSC1=NC(C)(C)C ? yes

What call does the record list for COc1ccc(-c2ccccc2)cc1NNC(=O)OC(C)C ? no

What call does the record list for Nc1cnn(-c2ccccc2)c(=O)c1Cl ? no

What call does the record list for CC(C)Nc1nc(Cl)nc(NC(C)C)n1 ? no

What call does the record list for CCCCOCN(C(=O)CCl)c1c(CC)cccc1CC ? yes

What call does the record list for CCCCC(O)(Cn1cncn1)c1ccc(Cl)cc1Cl (stereo not drawn) ? yes

What call does the record list for CCCC(=NOCC)C1=C(O)CC(CC(C)SCC)CC1=O (stereo not drawn) ? no

What call does the record list for CCOP(=O)(OCC)Oc1nc(Cl)c(Cl)cc1Cl ? yes

What call does the record list for CNC(=O)N(C)c1nnc(C(C)(C)C)s1 ? no

What call does the record list for COCc1cnc(C2=NC(C)(C(C)C)C(=O)N2)c(C(=O)O)c1 (stereo not drawn) ? no

What call does the record list for CC(C)N1C(=O)c2ccccc2NS1(=O)=O ? no

What call does the record list for N#Cc1c[nH]cc1-c1cccc2c1OC(F)(F)O2 ? no

What call does the record list for Cc1c(COC(=O)[C@@H]2[C@H](/C=C(\Cl)C(F)(F)F)C2(C)C)cccc1-c1ccccc1 ? no

What call does the record list for COP(=S)(OC)Oc1ccc([N+](=O)[O-])c(C)c1 ? no
